# Assay remarks: Cmax in male Sprague-Dawley rat at 14 mg/kg, ip measured after 24 hrs by LC/MS-MS analysis
# Type: ADME, organism-based
# Condition set: in vivo
Parameter: Cmax (ng/mL)
Field format: number, assumed ng/mL, no unit text.

Entry `Cc1ncsc1-c1ccc([C@@H](C)NC(=O)[C@H]2C[C@H](O)CN2C(=O)[C@H](NC(=O)COCCOCCOCCNC(=O)c2ccc(C(=O)N3CCC(CCCCNC(=O)/C=C/c4cccnc4)CC3)cc2)C(C)(C)C)cc1` — recorded Cmax = 147

Reference for the values: ChEMBL document CHEMBL5506040
